target: soluble human BACE1 catalytic domain (Homo sapiens (Human))
pKi: −log10 of the molar value.

{"columns": ["Compound", "pKi"],
 "data": [
  ["CN1C(=N)N[C@](C)(c2sc(-c3nnc(-c4ccc(C#N)cc4)o3)cc2Cl)CS1(=O)=O", 7.46],
  ["CN1C(=N)N[C@](C)(c2sc(-c3ccc(-c4nnc(C5CC5)o4)[nH]3)cc2Cl)CS1(=O)=O", 7.06],
  ["CN1C(=N)N[C@](C)(c2sc(-c3[nH]cnc3-c3ccccc3)cc2Cl)CS1(=O)=O", 5.04],
  ["CN1C(=N)N[C@](C)(c2sc(-c3nnc(-c4cnn5ccccc45)o3)cc2Cl)CS1(=O)=O", 5.62],
  ["CN1C(=N)N[C@](C)(c2sc(-c3nnc(-c4cc5ccccn5n4)o3)cc2Cl)CS1(=O)=O", 6.59],
  ["CN1C(=N)N[C@](C)(c2sc(-c3nnc(-c4ccc5scnc5c4)o3)cc2Cl)CS1(=O)=O", 6.77],
  ["CN1C(=N)N[C@](C)(c2sc(-c3nnc(-c4cccnc4)o3)cc2Cl)CS1(=O)=O", 5.98],
  ["CN1C(=N)N[C@](C)(c2cc(-c3cc(-c4ccccc4)on3)ccc2F)CS1(=O)=O [Example 15]", 6.49],
  ["CN1C(=N)N[C@](C)(c2sc(-c3nnc(-c4ccc(OC(F)(F)F)cc4)o3)cc2Cl)CS1(=O)=O", 7.25],
  ["CN1C(=N)N[C@](C)(c2sc(-c3nnc(-c4ccc(N5CCCC5=O)cc4)o3)cc2Cl)CS1(=O)=O", 5.99],
  ["CN1C(=N)N[C@](C)(c2cc(-c3nnc(-c4cscn4)o3)ccc2F)CS1(=O)=O", 5.07],
  ["CN1C(=N)N[C@](C)(c2sc(-c3nnc(-c4ccc(C(F)(F)F)cn4)o3)cc2Cl)CS1(=O)=O", 6.78],
  ["CN1C(=N)N[C@](C)(c2sc(-c3nnc(-c4nccs4)o3)cc2Cl)CS1(=O)=O", 6.40],
  ["CN1C(=N)N[C@](C)(c2cc(-c3cc(-c4ccccc4)on3)ccc2F)CS1(=O)=O [Example 13]", 6.04],
  ["CN1C(=N)N[C@](C)(c2sc(-c3nnc(-c4ncco4)o3)cc2Cl)CS1(=O)=O", 6.36],
  ["CN1C(=N)N[C@](C)(c2sc(-c3nnc(-c4ccc(F)c(F)c4)o3)cc2Cl)CS1(=O)=O", 6.93]
]}

###

target: purified human autoBACE-2 (Homo sapiens (Human), UniProt Q9Y5Z0)
Sequence (Q9Y5Z0 63-473 limits assumed): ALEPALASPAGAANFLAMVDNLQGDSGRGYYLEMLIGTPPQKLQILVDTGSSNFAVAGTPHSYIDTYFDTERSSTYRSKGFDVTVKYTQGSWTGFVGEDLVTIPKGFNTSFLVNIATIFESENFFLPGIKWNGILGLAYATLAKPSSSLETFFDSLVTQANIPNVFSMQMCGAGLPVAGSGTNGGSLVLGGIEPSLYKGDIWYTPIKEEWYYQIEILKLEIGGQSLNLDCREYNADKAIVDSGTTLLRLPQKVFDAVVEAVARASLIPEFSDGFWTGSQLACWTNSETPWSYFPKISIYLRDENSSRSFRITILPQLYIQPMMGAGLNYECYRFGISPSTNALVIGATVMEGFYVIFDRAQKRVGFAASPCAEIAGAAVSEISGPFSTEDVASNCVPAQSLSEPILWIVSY
pKi: −log10 of the molar value.
Measured pKi accompanies every entry in the list below.
Outcome Measure: pKi

{"columns": ["Molecule", "Measurement"],
 "data": [
  ["CN1C(=N)N[C@](C)(c2sc(-c3nnc(-c4ccc(Cl)cc4)o3)cc2Cl)CS1(=O)=O", 7.86],
  ["COC(=O)Cc1ccc(-c2nnc(-c3cc(Cl)c([C@]4(C)CS(=O)(=O)N(C)C(=N)N4)s3)o2)cc1", 6.17],
  ["CN1C(=N)N[C@](C)(c2sc(-c3nnc(-c4cncs4)o3)cc2Cl)CS1(=O)=O", 6.46],
  ["CN1C(=N)N[C@](C)(c2cc(-c3cc(-c4ccccc4)on3)ccc2F)CS1(=O)=O [Example 15]", 7.28],
  ["CN1C(=N)N[C@](C)(c2sc(-c3ncc(-c4ccccn4)[nH]3)cc2Cl)CS1(=O)=O", 7.06],
  ["CN1C(=N)N[C@](C)(c2sc(-c3nnc(-c4ncccn4)o3)cc2Cl)CS1(=O)=O", 6.98],
  ["CN1C(=N)N[C@](C)(c2sc(-c3nnc(-c4ccccc4)o3)cc2Cl)CS1(=O)=O", 8.11],
  ["CN1C(=N)N[C@](C)(c2cc(-c3cc(-c4ccccc4)on3)ccc2F)CS1(=O)=O [Example 13]", 6.68]
]}

###

pKi, soluble human BACE1 catalytic domain (Homo sapiens (Human)): measured values
pKi: −log10 of the molar value.

{"columns": ["Molecule", "pKi"],
 "data": [
  ["CN1C(=N)N[C@](C)(c2sc(-c3cnn(-c4ccccc4)c3)cc2Cl)CS1(=O)=O [Example 85]", 6.58],
  ["CN1C(=N)N[C@](C)(c2sc(-c3nnc(-c4cccc5ccnn45)o3)cc2Cl)CS1(=O)=O [Example 34]", 6.25],
  ["CN1C(=N)N[C@](C)(c2sc(-c3nnc(-c4ccc(N5CCCCC5)cc4)o3)cc2Cl)CS1(=O)=O [Example 68]", 5.27],
  ["CN1C(=N)N[C@](C)(c2sc(-c3nnc(-c4ccc(C(F)(F)F)cc4)o3)cc2Cl)CS1(=O)=O [Example 18]", 7.23],
  ["CCCOc1ccc(-c2nnc(-c3cc(Cl)c([C@]4(C)CS(=O)(=O)N(C)C(=N)N4)s3)o2)cc1 [Example 62]", 7.07],
  ["CN1C(=N)N[C@](C)(c2sc(-c3nnc(-c4ccn(C)n4)o3)cc2Cl)CS1(=O)=O [Example 46]", 5.94],
  ["CN1C(=N)N[C@](C)(c2sc(-c3cc(-c4ccccc4)on3)cc2Cl)CS1(=O)=O [Example 12]", 5.93]
]}

###

target: soluble human BACE1 catalytic domain (Homo sapiens (Human), UniProt P56817)
Sequence (P56817 75-416): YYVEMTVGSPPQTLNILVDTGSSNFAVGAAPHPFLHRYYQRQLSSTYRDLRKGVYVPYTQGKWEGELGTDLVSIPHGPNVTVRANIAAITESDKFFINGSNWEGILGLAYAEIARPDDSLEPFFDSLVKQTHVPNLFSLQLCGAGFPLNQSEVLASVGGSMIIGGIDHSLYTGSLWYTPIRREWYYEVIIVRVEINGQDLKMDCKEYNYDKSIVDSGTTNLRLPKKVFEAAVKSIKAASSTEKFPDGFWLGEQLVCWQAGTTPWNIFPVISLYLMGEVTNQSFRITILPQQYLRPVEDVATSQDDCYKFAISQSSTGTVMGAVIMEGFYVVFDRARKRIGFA
pKi: −log10 of the molar value.
# pKi >= 7 gives 1 (yes), anything below gives 0 (no)

{"columns": ["Molecule Smiles", "Discrete Label"],
 "data": [
  ["CC(C)c1ccc(-c2nnc(-c3cc(Cl)c([C@]4(C)CS(=O)(=O)N(C)C(=N)N4)s3)o2)cc1", "0 (no)"],
  ["CN1C(=N)N[C@](C)(c2sc(-c3cn(-c4ccccc4)nn3)cc2Cl)CS1(=O)=O", "0 (no)"],
  ["CN1C(=N)N[C@](C)(c2sc(-c3nnc(-c4cncs4)o3)cc2Cl)CS1(=O)=O", "0 (no)"],
  ["CN1C(=N)N[C@](C)(c2sc(-c3nnc(-c4ccc5c(c4)C(=O)CC5)o3)cc2Cl)CS1(=O)=O", "0 (no)"],
  ["CN1C(=N)N[C@](C)(c2sc(-c3nnc(-c4ccc(OC(F)F)cc4)o3)cc2Cl)CS1(=O)=O", "1 (yes)"]
]}

###

target: purified human autoBACE-2 (Homo sapiens (Human), UniProt Q9Y5Z0); test: BACE-2 Assay (BACE-HTRF assay); type: biochemical; settings: Ki calculated from IC50 using the Cheng-Prusoff equation; read-out: BACE2 Ki
Binarize Ki at 400 nM; below is Yes, at or above is No.

{"columns": ["Molecule Smiles", "Discrete Label"],
 "data": [
  ["CN1C(=N)N[C@](C)(c2sc(-c3nnc(C4Cc5ccccc5C4)o3)cc2Cl)CS1(=O)=O", "Yes"],
  ["CN1C(=N)N[C@](C)(c2sc(-c3ccc(-c4nnco4)[nH]3)cc2Cl)CS1(=O)=O", "Yes"],
  ["CN1C(=N)N[C@](C)(c2cc(-c3nnc(-c4nccs4)o3)ccc2F)CS1(=O)=O", "No"],
  ["CN1C(=N)N[C@](C)(c2cc(-c3nnc(-c4cocn4)o3)ccc2F)CS1(=O)=O", "No"],
  ["CN1C(=N)N[C@](C)(c2sc(-c3nnc(-c4ccc(-n5cccn5)cc4)o3)cc2Cl)CS1(=O)=O", "Yes"],
  ["CCCCCOc1ccc(-c2nnc(-c3cc(Cl)c([C@]4(C)CS(=O)(=O)N(C)C(=N)N4)s3)o2)cc1", "Yes"],
  ["CN1C(=N)N[C@](C)(c2sc(-c3nnc(-c4nccs4)o3)cc2Cl)CS1(=O)=O", "Yes"],
  ["CN1C(=N)N[C@](C)(c2sc(-c3nnc(-c4ccnn4C)o3)cc2Cl)CS1(=O)=O", "No"],
  ["CN1C(=N)N[C@](C)(c2sc(-c3nnc(-c4ccc5[nH]cnc5c4)o3)cc2Cl)CS1(=O)=O", "No"],
  ["CN1C(=N)N[C@](C)(c2sc(-c3cc(-c4ccccc4)on3)cc2Cl)CS1(=O)=O", "Yes"]
]}

###

// log10 of Ki collected for soluble human BACE1 catalytic domain (Homo sapiens (Human), UniProt P56817)
Outcome Measure: log10 of Ki (log10 of the value in nM)

{"columns": ["Compound", "Outcome Measure", "Measurement"],
 "data": [
  ["CN1C(=N)N[C@](C)(c2cc(-c3nnc(-c4ncco4)o3)ccc2F)CS1(=O)=O [Example 53]", "log10 of Ki", 3.53],
  ["CN1C(=N)N[C@](C)(c2sc(-c3ncc(-c4ccccn4)[nH]3)cc2Cl)CS1(=O)=O [Example 3]", "log10 of Ki", 2.67],
  ["CN1C(=N)N[C@](C)(c2sc(-c3nnc(-c4cocn4)o3)cc2Cl)CS1(=O)=O [Example 42]", "log10 of Ki", 2.97],
  ["CN1C(=N)N[C@](C)(c2sc(-c3nnc(-c4ccncn4)o3)cc2Cl)CS1(=O)=O [Example 43]", "log10 of Ki", 2.91],
  ["CN1C(=N)N[C@](C)(c2cc(-c3nnc(-c4cncs4)o3)ccc2F)CS1(=O)=O [Example 50]", "log10 of Ki", 4.00],
  ["CN1C(=N)N[C@](C)(c2sc(-c3nnc(-c4cncnc4)o3)cc2Cl)CS1(=O)=O [Example 39]", "log10 of Ki", 3.73],
  ["CN1C(=N)N[C@](C)(c2sc(-c3ccc(-c4nnco4)[nH]3)cc2Cl)CS1(=O)=O [Example 8]", "log10 of Ki", 0.45],
  ["CN1C(=N)N[C@](C)(c2sc(-c3nnc(-c4ccc(Cl)cc4)o3)cc2F)CS1(=O)=O [Example 19]", "log10 of Ki", 1.50],
  ["CN1C(=N)N[C@](C)(c2sc3c(-c4coc(-c5ccc(F)cc5)n4)cccc3c2F)CS1(=O)=O [Example 82]", "log10 of Ki", 3.69],
  ["CN1C(=N)N[C@](C)(c2cc(-c3ccc(-c4nnco4)[nH]3)ccc2F)CS1(=O)=O [Example 11]", "log10 of Ki", 1.65],
  ["CN1C(=N)N[C@](C)(c2sc(-c3nnc(-c4cnccn4)o3)cc2Cl)CS1(=O)=O [Example 27]", "log10 of Ki", 2.83],
  ["CN1C(=N)N[C@](C)(c2sc(-c3nnc(-c4cnco4)o3)cc2Cl)CS1(=O)=O [Example 40]", "log10 of Ki", 2.40],
  ["CN1C(=N)N[C@](C)(c2cc(-c3nnc(-c4ccccc4)o3)ccc2F)CS1(=O)=O [Example 24]", "log10 of Ki", 3.99],
  ["CN1C(=N)N[C@](C)(c2sc(-c3nnc(-c4ncccn4)o3)cc2Cl)CS1(=O)=O [Example 36]", "log10 of Ki", 2.89]
]}
